B1: KLHL12 (parent)
chain: REESLPNLLQYVRMPLLTPRYITD

variants of: B1; experiment: protein stability index of a GFP-peptide fusion (GPS, HEK-293T) (PSI 1-6); higher = more stable; conditions: c terminus: a fixed tail appended;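 also: lentivirally expressed fusions sorted by FACS into six bins by GFP to DsRed ratio, PSI derived from sequencing read proportions per bin multiplied by bin number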
propertyLabel: protein stability index
Answer field: number only, no words.

What value of protein stability index has been recorded for this entry: R13N
2.58

What value of protein stability index has been recorded for this entry: L9W
2.49

What value of protein stability index has been recorded for this entry: L17K
3.51

What value of protein stability index has been recorded for this entry: V12E
3.85

What value of protein stability index has been recorded for this entry: L9M
2.44

What value of protein stability index has been recorded for this entry: E3Q
2.72

What value of protein stability index has been recorded for this entry: N7L
2.01

What value of protein stability index has been recorded for this entry: L8H
3.27

What value of protein stability index has been recorded for this entry: E2S
3.42

What value of protein stability index has been recorded for this entry: T23G
2.48

What value of protein stability index has been recorded for this entry: E2Y
2.83

What value of protein stability index has been recorded for this entry: M14N
2.4

What value of protein stability index has been recorded for this entry: R13D
2.48

What value of protein stability index has been recorded for this entry: S4W
1.9

What value of protein stability index has been recorded for this entry: L5E
3.4

What value of protein stability index has been recorded for this entry: Y21G
3.4

What value of protein stability index has been recorded for this entry: T23Y
2.09

What value of protein stability index has been recorded for this entry: R13Y
2.53

What value of protein stability index has been recorded for this entry: R20S
2.72

What value of protein stability index has been recorded for this entry: M14C
2.02

What value of protein stability index has been recorded for this entry: V12K
2.81

What value of protein stability index has been recorded for this entry: V12C
1.98

What value of protein stability index has been recorded for this entry: Y21C
2.95

What value of protein stability index has been recorded for this entry: L5Q
2.81

What value of protein stability index has been recorded for this entry: L16I
2.45

What value of protein stability index has been recorded for this entry: N7H
2.44

What value of protein stability index has been recorded for this entry: L5R
2.52

What value of protein stability index has been recorded for this entry: Y11P
3.56

What value of protein stability index has been recorded for this entry: P6C
2.05

What value of protein stability index has been recorded for this entry: Y11E
3.9

What value of protein stability index has been recorded for this entry: L17A
3.51

What value of protein stability index has been recorded for this entry: T18D
2.38

What value of protein stability index has been recorded for this entry: R20E
2.7

What value of protein stability index has been recorded for this entry: M14L
2.35

What value of protein stability index has been recorded for this entry: P6F
1.93

What value of protein stability index has been recorded for this entry: P6G
2.28

What value of protein stability index has been recorded for this entry: Q10R
3.13

What value of protein stability index has been recorded for this entry: E2W
3.14

What value of protein stability index has been recorded for this entry: Q10E
2.41

What value of protein stability index has been recorded for this entry: L17R
3.48

What value of protein stability index has been recorded for this entry: P15Q
2.45

What value of protein stability index has been recorded for this entry: P19C
2.28

What value of protein stability index has been recorded for this entry: L16H
3.18

What value of protein stability index has been recorded for this entry: P15R
1.69

What value of protein stability index has been recorded for this entry: L9V
2.51

What value of protein stability index has been recorded for this entry: R1H
2.18

What value of protein stability index has been recorded for this entry: V12T
3.01

What value of protein stability index has been recorded for this entry: S4F
2.15

What value of protein stability index has been recorded for this entry: E2R
2.85

What value of protein stability index has been recorded for this entry: P6H
2.13

What value of protein stability index has been recorded for this entry: L16N
2.77

What value of protein stability index has been recorded for this entry: E3M
1.9

What value of protein stability index has been recorded for this entry: L16E
3.04

What value of protein stability index has been recorded for this entry: T23H
2.58

What value of protein stability index has been recorded for this entry: E3L
2.11

What value of protein stability index has been recorded for this entry: L8Y
2.67

What value of protein stability index has been recorded for this entry: T23W
1.7

What value of protein stability index has been recorded for this entry: T23P
2.57

What value of protein stability index has been recorded for this entry: S4I
2.16

What value of protein stability index has been recorded for this entry: S4R
2.5

What value of protein stability index has been recorded for this entry: L17G
2.77

What value of protein stability index has been recorded for this entry: T23F
1.62

What value of protein stability index has been recorded for this entry: I22L
2.4

What value of protein stability index has been recorded for this entry: Y21I
2.84

What value of protein stability index has been recorded for this entry: P19M
2.02

What value of protein stability index has been recorded for this entry: E2K
2.31

What value of protein stability index has been recorded for this entry: T23R
3.83

What value of protein stability index has been recorded for this entry: P6Q
1.91

What value of protein stability index has been recorded for this entry: V12P
3.45

What value of protein stability index has been recorded for this entry: L17S
2.87

What value of protein stability index has been recorded for this entry: R1W
1.61

What value of protein stability index has been recorded for this entry: L5K
2.65

What value of protein stability index has been recorded for this entry: Y11V
2.51

What value of protein stability index has been recorded for this entry: E2F
2.4

What value of protein stability index has been recorded for this entry: E2P
2.56

What value of protein stability index has been recorded for this entry: P15A
1.58

What value of protein stability index has been recorded for this entry: Y21K
3.93

What value of protein stability index has been recorded for this entry: L9S
3.36

What value of protein stability index has been recorded for this entry: L17M
2.63

What value of protein stability index has been recorded for this entry: T18A
2.36

What value of protein stability index has been recorded for this entry: L5S
2.8

What value of protein stability index has been recorded for this entry: S4K
2.41

What value of protein stability index has been recorded for this entry: N7M
2.03
